measurementDescription: Solubility in water, DMSO and PBS solubility assay
Assay type: physicochemical
conditionContext: water; read-out: solubility in water
Counter-ions that a name gives are not always drawn.
measurementType: solubility

Task item: Note solubility for the compound shown: NCCCNCCCC[C@H](N)C(=O)O [APL, dihydrochloride]
Reply: ≥ 10 mM

* * *

measurementDescription: Intravenous and oral pharmacokinetic study in mice
Format: in vivo
conditionContext: mouse, IV, 5 mg/kg, plasma
Structures can show the parent of a compound that is named as a salt.
measurementType: Cmax (ng/mL)
Numbers only, in ng/mL.

Task item: Indicate its recorded Cmax; the compound in question is NCCCNCCCC[C@H](N)C(=O)O [APL, dihydrochloride]
Reply: 8360

* * *

measurementDescription: Solution stability in PBS, simulated gastric fluid and simulated intestinal fluid
Format: physicochemical
conditionContext: simulated intestinal fluid (SIF) with pancreatin; 5 μM in SIF (pH 6.8, pancreatin), 37° C.
Where a name gives a salt, the structure may show the parent alone.
measurementType: half-life at 5 μM

Task item: Query half-life at 5 μM for NCCCNCCCC[C@H](N)C(=O)O [APL, dihydrochloride]
Reply: > 3 h

* * *

measurementDescription: Solubility in water, DMSO and PBS solubility assay
Type: physicochemical
conditionContext: phosphate buffered saline (PBS) without Ca or Mg, aqueous buffer; PBS pH 7.4 without Ca or Mg; 200 μM = maximum concentration tested; read-out: solubility in PBS
Counter-ions that a name gives are not always drawn.
measurementType: solubility

Task item: Provide solubility value for the following compound: NCCCNCCCC[C@H](N)C(=O)O [APL, dihydrochloride]
Reply: > 200 µM

* * *

measurementDescription: Solubility in water, DMSO and PBS solubility assay
Type: physicochemical
conditionContext: DMSO, organic solvent or mixture; read-out: solubility in DMSO
Structures can show the parent of a compound that is named as a salt.
measurementType: solubility

Task item: Determine from records and report solubility for NCCCNCCCC[C@H](N)C(=O)O [APL, dihydrochloride]
Reply: ≥ 10 mM

* * *

measurementDescription: Intravenous and oral pharmacokinetic study in mice
Format: in vivo
conditionContext: mouse, plasma, iv, 5 mg/kg, IV, 5 mg/kg, read-out: VSS
Where a name gives a salt, the structure may show the parent alone.
measurementType: Vd (L/kg)
Give bare numbers, in L/kg.

Task item: Tell me Vd reported for NCCCNCCCC[C@H](N)C(=O)O [APL, dihydrochloride]
Reply: 0.414

* * *

measurementDescription: Solution stability in mouse plasma
Assay type: in vitro ADME, mouse (male C57BL/6)
conditionContext: male, C57BL/6; 1 μM in mouse plasma, 37° C.
Description: The stability of the title compound was tested in the following media, in the following concentrations: (i) 1 μM in mouse (male C57BL/6) plasma, (ii) 1 μM in PBS (with Ca and Mg) (control treatment); (iii) 5 μM in stimulated gastric fluid (SGF; 0.2% NaCl; 84 mM HCl; 0.32% pepsin; pH 1.2); (iv) 5 μM in stimulated intestinal fluid (SIF; 50 mM KP, pH 6.8; 10 mg/ml pancreatin); and (v) 5 μM in PBS (+Ca and Mg) (control treatment). […]
Counter-ions that a name gives are not always drawn.
measurementType: half-life at 1 μM

Task item: Give a short answer stating reported half-life at 1 μM for NCCCNCCCC[C@H](N)C(=O)O [APL, dihydrochloride] .
Reply: > 6 h

* * *

measurementDescription: Solution stability in PBS, simulated gastric fluid and simulated intestinal fluid
Assay type: physicochemical
conditionContext: simulated gastric fluid (SGF) with pepsin; 5 μM in SGF (pH 1.2, pepsin), 37° C.
Counter-ions that a name gives are not always drawn.
measurementType: half-life at 5 μM

Task item: Name the recorded half-life at 5 μM of the item NCCCNCCCC[C@H](N)C(=O)O [APL, dihydrochloride] in your answer.
Reply: > 3 h

* * *

measurementDescription: Intravenous and oral pharmacokinetic study in mice
Assay type: in vivo
conditionContext: mouse, PO, 10 mg/kg, plasma
Where a name gives a salt, the structure may show the parent alone.
measurementType: Cmax (ng/mL)
Give bare numbers, in ng/mL.

Task item: Given NCCCNCCCC[C@H](N)C(=O)O [APL, dihydrochloride] , respond with its Cmax.
Reply: 1440

* * *

measurementDescription: Liver microsome stability, human
Format: in vitro ADME, Human (pooled male and female)
conditionContext: both sexes; human liver microsomes, 1 μM compound, 0.5 mg/ml microsomal protein, 37° C., 2 mM NADPH
Counter-ions that a name gives are not always drawn.
measurementType: microsomal CLint at 1 μM

Task item: Return microsomal CLint at 1 μM (reported value) for this molecule: NCCCNCCCC[C@H](N)C(=O)O [APL, dihydrochloride]
Reply: < 23 µL/min/mg
